# target or system: Acetylcholinesterase (Homo sapiens)
# Sequence (P22303 whole entry): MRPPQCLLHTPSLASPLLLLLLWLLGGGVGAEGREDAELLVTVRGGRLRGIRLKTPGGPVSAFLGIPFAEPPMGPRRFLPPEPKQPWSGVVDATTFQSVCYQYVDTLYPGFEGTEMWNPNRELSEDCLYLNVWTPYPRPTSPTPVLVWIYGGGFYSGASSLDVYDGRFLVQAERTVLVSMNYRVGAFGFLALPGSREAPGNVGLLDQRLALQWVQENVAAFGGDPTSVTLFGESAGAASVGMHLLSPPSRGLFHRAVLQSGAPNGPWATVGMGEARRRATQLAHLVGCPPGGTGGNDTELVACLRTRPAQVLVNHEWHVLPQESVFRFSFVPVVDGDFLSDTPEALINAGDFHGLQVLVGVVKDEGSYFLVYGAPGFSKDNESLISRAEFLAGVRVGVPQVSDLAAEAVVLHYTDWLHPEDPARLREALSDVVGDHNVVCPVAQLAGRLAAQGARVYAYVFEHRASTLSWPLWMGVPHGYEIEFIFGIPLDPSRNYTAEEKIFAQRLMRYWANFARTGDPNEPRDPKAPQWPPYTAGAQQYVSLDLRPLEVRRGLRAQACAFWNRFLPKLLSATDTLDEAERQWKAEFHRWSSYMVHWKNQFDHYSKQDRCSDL
Documented IC50 across a set of compounds
# unit: µM | format: bare number

smiles_data=COc1c(CC=C(C)C)c(O)cc2c1C[C@H](c1ccc(O)c(CC=C(C)C)c1O)CO2 target_or_system="Acetylcholinesterase (Homo sapiens)" readout=IC50 value_measured=15.5

Acetylcholinesterase (Homo sapiens) IC50 of COc1cc2occ(-c3ccc(O)cc3O)c(=O)c2c(O)c1CC=C(C)C is 9.9

----------
# target or system: Tyrosinase (Homo sapiens) (UniProt P14679)
# Sequence (P14679 whole entry): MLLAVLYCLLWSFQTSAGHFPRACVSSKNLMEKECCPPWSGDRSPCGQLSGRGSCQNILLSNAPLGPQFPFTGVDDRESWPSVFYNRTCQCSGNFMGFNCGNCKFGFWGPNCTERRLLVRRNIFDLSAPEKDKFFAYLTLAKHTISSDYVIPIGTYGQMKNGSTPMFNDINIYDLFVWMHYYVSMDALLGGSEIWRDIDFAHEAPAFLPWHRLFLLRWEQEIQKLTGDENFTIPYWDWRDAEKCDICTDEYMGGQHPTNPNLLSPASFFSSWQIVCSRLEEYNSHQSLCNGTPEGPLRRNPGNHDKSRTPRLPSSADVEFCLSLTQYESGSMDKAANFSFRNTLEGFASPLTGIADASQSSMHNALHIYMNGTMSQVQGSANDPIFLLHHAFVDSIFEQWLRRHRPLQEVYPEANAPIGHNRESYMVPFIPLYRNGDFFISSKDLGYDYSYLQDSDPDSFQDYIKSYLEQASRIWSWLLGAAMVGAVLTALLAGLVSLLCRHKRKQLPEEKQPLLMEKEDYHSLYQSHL
# assay protocol: Inhibition of tyrosinase (unknown origin) using L-tyrosine as substrate assessed as oxidation of L-tyrosine at 20 uM after 15 mins
Activity calls are given as the source filed them. The calls are words filed in the database; no cut-off is given here.
readout: inhibition

molecule="COc1c(CC=C(C)C)c(O)cc2c1C[C@H](c1ccc(O)cc1O)CO2 [GLYASPERIN C]" value_measured="> 95%"
molecule=COc1cc2c(c(OC)c1CC=C(C)C)C=C(c1ccc(O)cc1O)CO2 value_measured=inactive
molecule=COc1cc(/C=C/C(=O)c2ccc(O)cc2O)ccc1O value_measured=Active
molecule="O=c1c(O)c(-c2ccc(O)cc2)oc2cc(O)cc(O)c12 [KAEMPFEROL]" value_measured="> 95%"
molecule="COc1cc(O)ccc1/C=C/C(=O)c1ccc(O)cc1 [ECHINATIN]" value_measured=Active
molecule=O=C(/C=C/c1ccc(O)cc1)c1ccc(O)cc1O value_measured=Active
molecule="COc1cc2c(c(OC)c1CC=C(C)C)C[C@H](c1ccc(O)cc1O)CO2 [GLYASPERIN D]" value_measured="> 95%"

// below: inhibition requested for another molecule
Entry COc1c2c(cc(O)c1CC=C(C)C)OCC(c1ccc(O)cc1O)=C2 ; inhibition = inactive

Source: ChEMBL document CHEMBL3808312
